# key: entry, value: melting point
result_type: melting point

- substance_smiles: "CCC(=O)Nc1ccc(-c2noc(C(F)(F)F)n2)cc1C"
  result_type: "melting point"
  reported_measurement: "178 to 185 °C"
- substance_smiles: "C=CCON(C)C(=O)Nc1ccc(-c2noc(C(F)(F)F)n2)cc1C"
  result_type: "melting point"
  reported_measurement: "62 to 66 °C"
- substance_smiles: "CC(=O)Nc1ccc(-c2noc(C(F)(F)F)n2)cc1Cl"
  result_type: "melting point"
  reported_measurement: "155 to 170 °C"
- substance_smiles: "CC(=O)Nc1ccc(-c2noc(C(F)(F)F)n2)cc1F"
  result_type: "melting point"
  reported_measurement: "120 to 126 °C"
- substance_smiles: "COCC(=O)Nc1ccc(-c2noc(C(F)(F)F)n2)cc1Cl"
  result_type: "melting point"
  reported_measurement: "77 to 84 °C"
- substance_smiles: "C=CCONC(=O)Nc1ccc(-c2noc(C(F)(F)F)n2)cc1C"
  result_type: "melting point"
  reported_measurement: "101 to 104 °C"
- substance_smiles: "CON(C)C(=O)Nc1ccc(-c2noc(C(F)(F)F)n2)cc1C"
  result_type: "melting point"
  reported_measurement: "73 to 76 °C"
- substance_smiles: "C=C(C)CONC(=O)Nc1ccc(-c2noc(C(F)(F)F)n2)cc1C"
  result_type: "melting point"
  reported_measurement: "114 to 117 °C"

###

# key: entry, value: melting point

- molecule: "CCOC(=O)Nc1ccc(-c2noc(C(F)(F)F)n2)cc1F [Compound 1.9]"
  melting point: "86 to 91 °C"
- molecule: "COCC(=O)Nc1ccc(-c2noc(C(F)(F)F)n2)cc1F [Compound 1.8]"
  melting point: "42 to 46 °C"
- molecule: "CCC(=O)Nc1ccc(-c2noc(C(F)(F)F)n2)cc1F [Compound 1.6]"
  melting point: "123 to 128 °C"
- molecule: "COCC(=O)Nc1ccc(-c2noc(C(F)(F)F)n2)cc1C [Compound 1.5]"
  melting point: "73 to 80 °C"
- molecule: "CC(=O)Nc1ccc(-c2noc(C(F)(F)F)n2)cc1C [Compound 1.3]"
  melting point: "153 to 179 °C"

Source of measurements: patent US20190284148A1
